molecular target: human GLP-1 receptor (human, UniProt P43220 24-463); experiment: cell-based or functional assay
EC50, cAMP strictly under 0.5 nM means Satisfied; at 0.5 nM or over means Not satisfied.

Request: Determine if YXEGTXTSDKSIXLDXKAQXEFIXXLIEGGPSSGAPPPS (Aib2, αMeF(2F)6, αMeL13, Orn16, Aib20, D-Glu24, αMeY25, K10 and K17: K(AEEA2-(γ-Glu)-CO-(CH2)10-CH3), C-terminal NH2) [Example 136] shows EC50, cAMP strictly lower than 0.5 nM.
Result: Satisfied

Request: Determine if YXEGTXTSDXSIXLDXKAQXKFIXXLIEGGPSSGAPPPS (Aib2, αMeF(2F)6, 4Pal10, αMeL13, Orn16, Aib20, D-Glu24, αMeY25, K17 and K21: K(AEEA2-(γ-Glu)-CO-(CH2)14-CH3), C-terminal NH2) [Example 21] shows EC50, cAMP strictly lower than 0.5 nM.
Result: Satisfied

Request: Determine if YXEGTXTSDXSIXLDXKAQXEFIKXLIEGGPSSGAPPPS (Aib2, αMeF(2F)6, 4Pal10, αMeL13, Orn16, Aib20, αMeY25, K17 and K24: K(AEEA3-(γ-Glu)-CO-(CH2)12-CO2H), C-terminal NH2) [Example 80] shows EC50, cAMP strictly lower than 0.5 nM.
Result: Not satisfied

Request: Determine if YXEGTXTSDXSIXLDXKGQXEFIXXLIEGGKSSGAPPPS (Aib2, αMeF(2F)6, 4Pal10, αMeL13, Orn16, Aib20, D-Glu24, αMeY25, K17 and K31: K(AEEA2-(γ-Glu)-CO-(CH2)12-CO2H), C-terminal NH2) [Example 102] shows EC50, cAMP strictly lower than 0.5 nM.
Result: Not satisfied

Request: Determine if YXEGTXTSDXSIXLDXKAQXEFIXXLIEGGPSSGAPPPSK (Aib2, αMeF(2F)6, 4Pal10, αMeL13, Orn16, Aib20, D-Glu24, αMeY25, K17 and K40: K(AEEA2-(γ-Glu)-CO-(CH2)14-CH3), C-terminal NH2) [Example 25] shows EC50, cAMP strictly lower than 0.5 nM.
Result: Satisfied

Request: Determine if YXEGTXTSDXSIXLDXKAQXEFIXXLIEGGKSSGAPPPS (Aib2, αMeF(2F)6, 4Pal10, αMeL13, Orn16, Aib20, D-Glu24, αMeY25, K17 and K31: K(AEEA2-(γ-Glu)-CO-(CH2)12-CH3), C-terminal NH2) [Example 8] shows EC50, cAMP strictly lower than 0.5 nM.
Result: Satisfied

Request: Determine if YXEGTXTSDXSIXLDXIAQXEFIKXLIEGGKSSGAPPPS (Aib2, αMeF(2F)6, 4Pal10, αMeL13, Orn16, Aib20, αMeY25, K24 and K31: K(AEEA2-(γ-Glu)-CO-(CH2)12-CO2H), C-terminal NH2) [Example 71] shows EC50, cAMP strictly lower than 0.5 nM.
Result: Satisfied

Request: Determine if YXEGTXTSDVSIXLDXKAQXEFIXXLIEGGKSSGAPPPS (Aib2, αMeF(2F)6, αMeL13, Orn16, Aib20, D-Glu24, αMeY25, K17 and K31: K(AEEA2-(γ-Glu)-CO-(CH2)12-CO2H), C-terminal NH2) [Example 90] shows EC50, cAMP strictly lower than 0.5 nM.
Result: Satisfied

Request: Determine if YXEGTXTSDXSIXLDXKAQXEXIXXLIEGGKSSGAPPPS (Aib2, αMeF(2F)6, 4Pal10, αMeL13, Orn16, Aib20, 3ClPhe22, D-Glu24, αMeY25, K17 and K31: K(AEEA2-(γ-Glu)-CO-(CH2)12-CO2H), C-terminal NH2) [Example 62] shows EC50, cAMP strictly lower than 0.5 nM.
Result: Satisfied

Request: Determine if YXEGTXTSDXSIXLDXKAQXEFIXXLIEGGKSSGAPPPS (Aib2, αMeF(2F)6, OMeY10, αMeL13, Orn16, Aib20, D-Glu24, αMeY25, K17 and K31: K(AEEA2-(γ-Glu)-CO-(CH2)12-CO2H), C-terminal NH2) [Example 58] shows EC50, cAMP strictly lower than 0.5 nM.
Result: Satisfied

Request: Determine if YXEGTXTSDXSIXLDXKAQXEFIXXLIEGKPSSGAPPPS (Aib2, αMeF(2F)6, 4Pal10, αMeL13, Orn16, Aib20, D-Glu24, αMeY25, K17 and K30: K(AEEA2-(γ-Glu)-CO-(CH2)10-CH3), C-terminal NH2) [Example 140] shows EC50, cAMP strictly lower than 0.5 nM.
Result: Satisfied

Request: Determine if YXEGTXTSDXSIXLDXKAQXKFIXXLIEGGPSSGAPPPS (Aib2, αMeF(2F)6, 4Pal10, αMeL13, Orn16, Aib20, D-Glu24, αMeY25, K17 and K21: K(AEEA2-(γ-Glu)-(4-(4-tert-butylphenyl)butanoyl)), C-terminal NH2) [Example 131] shows EC50, cAMP strictly lower than 0.5 nM.
Result: Satisfied

Request: Determine if YXEGTXTSDXSIXLDXIAQXKFIXXLIEGGKSSGAPPPS (Aib2, αMeF(2F)6, 4Pal10, αMeL13, Orn16, Aib20, D-Glu24, αMeY25, K21 and K31: K(AEEA2-(γ-Glu)-CO-(CH2)12-CO2H), C-terminal NH2) [Example 74] shows EC50, cAMP strictly lower than 0.5 nM.
Result: Satisfied

Request: Determine if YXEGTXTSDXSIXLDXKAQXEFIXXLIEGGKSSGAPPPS (Aib2, αMeF(2F)6, 4Pal10, αMeL13, Orn16, Aib20, D-Glu24, αMeY25, K17 and K31: K(AEEA2-(γ-Glu)-(7-(4-carboxyphenoxy)heptanoyl)), C-terminal NH2) [Example 125] shows EC50, cAMP strictly lower than 0.5 nM.
Result: Not satisfied

Request: Determine if YXEGTXTSDVSIXLDXKAQXEXIXXLIEGGKSSGAPPPS (Aib2, αMeF(2F)6, αMeL13, Orn16, Aib20, αMeF22, D-Glu24, αMeY25, K17 and K31: K(AEEA2-(γ-Glu)-CO-(CH2)12-CO2H), C-terminal NH2) [Example 92] shows EC50, cAMP strictly lower than 0.5 nM.
Result: Not satisfied

Request: Determine if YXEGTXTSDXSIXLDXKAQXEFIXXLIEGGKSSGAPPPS (Aib2, αMeF(2F)6, 4Pal10, αMeL13, Orn16, Aib20, D-Glu24, αMeY25, K17 and K31: K(AEEA2-(γ-Glu)-(4-(4-iodophenyl)butanoyl)), C-terminal NH2) [Example 3] shows EC50, cAMP strictly lower than 0.5 nM.
Result: Satisfied

Request: Determine if YXEGTXTSDXSIXLDXKAQXXFIXXLIEGGKSSGAPPPS (Aib2, αMeF(2F)6, 4Pal10, αMeL13, Orn16, Aib20, Orn21, D-Glu24, αMeY25, K17 and K31: K(AEEA2-(γ-Glu)-CO-(CH2)12-CO2H), C-terminal NH2) [Example 150] shows EC50, cAMP strictly lower than 0.5 nM.
Result: Satisfied

Request: Determine if YXEGTXTSDXSKXLDXKAQXEFIXXLIEGGPSSGAPPPS (Aib2, αMeF(2F)6, 4Pal10, αMeL13, Orn16, Aib20, D-Glu24, αMeY25, K12 and K17: K(AEEA2-(γ-Glu)-CO-(CH2)12-CO2H), C-terminal NH2) [Example 28] shows EC50, cAMP strictly lower than 0.5 nM.
Result: Not satisfied

Request: Determine if YXEGTXTSDXXIXLDXKAQXEFIKXLIEGGPSSGAPPPS (Aib2, αMeF(2F)6, 4Pal10, Aib11, αMeL13, Orn16, Aib20, αMeY25, K17 and K24: K(AEEA2-(γ-Glu)-CO-(CH2)12-CO2H), C-terminal NH2) [Example 113] shows EC50, cAMP strictly lower than 0.5 nM.
Result: Satisfied

Request: Determine if YXEGTXTSDXXIXLDXKAQXEXIKXLIEGGPSSGAPPPS (Aib2, αMeF(2F)6, 4Pal10, Aib11, αMeL13, Orn16, Aib20, αMeF22, αMeY25, K17 and K24: K(AEEA2-(γ-Glu)-CO-(CH2)12-CO2H), C-terminal NH2) [Example 117] shows EC50, cAMP strictly lower than 0.5 nM.
Result: Not satisfied

Request: Determine if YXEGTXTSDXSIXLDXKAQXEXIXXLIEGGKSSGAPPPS (Aib2, αMeF(2F)6, 4Pal10, αMeL13, Orn16, Aib20, 2Nal22, D-Glu24, αMeY25, K17 and K31: K(AEEA2-(γ-Glu)-CO-(CH2)12-CO2H), C-terminal NH2) [Example 99] shows EC50, cAMP strictly lower than 0.5 nM.
Result: Satisfied

Request: Determine if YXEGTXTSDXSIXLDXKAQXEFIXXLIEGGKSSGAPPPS (Aib2, αMeF6, 4Pal10, αMeL13, Orn16, Aib20, D-Glu24, αMeY25, K17 and K31: K(AEEA2-(γ-Glu)-CO-(CH2)12-CO2H), C-terminal NH2) [Example 44] shows EC50, cAMP strictly lower than 0.5 nM.
Result: Not satisfied

Request: Determine if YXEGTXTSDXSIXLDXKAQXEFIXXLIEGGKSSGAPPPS (Aib2, αMeF(2F)6, 4Pal10, αMeL13, Orn16, Aib20, D-Glu24, αMeY25, K17 and K31: K((εK)-(γ-Glu)-CO-(CH2)12-CO2H), C-terminal NH2) [Example 38] shows EC50, cAMP strictly lower than 0.5 nM.
Result: Satisfied

Request: Determine if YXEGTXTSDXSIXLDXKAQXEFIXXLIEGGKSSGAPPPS (Aib2, αMeF(2F)6, 2TA10, αMeL13, Orn16, Aib20, D-Glu24, αMeY25, K17 and K31: K(AEEA2-(γ-Glu)-CO-(CH2)12-CO2H), C-terminal NH2) [Example 145] shows EC50, cAMP strictly lower than 0.5 nM.
Result: Not satisfied
